# assay-name: Isocratic RP-HPLC lipophilicity (k, log k, extrapolated log kw, slope S), MeOH/water mobile phases
# Format: physicochemical
# measurement-setup: mobile phase MeOH/water 70:30 (v/v)

- molecule: "CCCCOC(=O)Nc1ccc(C(O)CN2CCN(c3ccccc3F)CC2)cc1.Cl (centres unmarked)"
  log k (RP-HPLC): 0.665
- molecule: "CCCCOC(=O)Nc1cccc(C(O)CN2CCN(c3ccccc3F)CC2)c1.Cl (centres unmarked)"
  log k (RP-HPLC): 0.702
- molecule: "CCCOC(=O)Nc1ccc(C(O)CN2CCN(c3ccccc3F)CC2)cc1.Cl (centres unmarked)"
  log k (RP-HPLC): 0.492
- molecule: "CCOC(=O)Nc1ccc(C(O)CN2CCN(c3ccccc3F)CC2)cc1.Cl (centres unmarked)"
  log k (RP-HPLC): 0.312
- molecule: "COC(=O)Nc1cccc(C(O)CN2CCN(c3ccccc3F)CC2)c1.Cl (centres unmarked)"
  log k (RP-HPLC): 0.248
- molecule: "CCOC(=O)Nc1cccc(C(O)CN2CCN(c3ccccc3F)CC2)c1.Cl (centres unmarked)"
  log k (RP-HPLC): 0.444
- molecule: "COC(=O)Nc1ccc(C(O)CN2CCN(c3ccccc3F)CC2)cc1.Cl (centres unmarked)"
  log k (RP-HPLC): 0.163
- molecule: "CCCOC(=O)Nc1cccc(C(O)CN2CCN(c3ccccc3F)CC2)c1.Cl (centres unmarked)"
  log k (RP-HPLC): 0.552

----------
# Test system: M. kansasii CNCTC My 235/80 (identical with ATCC 12478)
# assay-name: In vitro antimycobacterial MIC, dilution-micromethod in Šula semisynthetic medium
# Type: cell-based, Mycobacterium kansasii
# measurement-setup: Mycobacterium kansasii, ATCC12478, 504 h, 21 d cultivation; read-out: MIC, MK My 235/80

- compound: "CCCOC(=O)Nc1cccc(C(O)CN2CCN(c3ccccc3F)CC2)c1.Cl (centres unmarked)"
  MIC: "125 µM"
- compound: "CCCOC(=O)Nc1ccc(C(O)CN2CCN(c3ccccc3F)CC2)cc1.Cl (centres unmarked)"
  MIC: "> 250 µM"
- compound: "CC1COc2c(N3CCN(C)CC3)c(F)cc3c(=O)c(C(=O)O)cn1c23 (centres unmarked) [OFLX, ofloxacin, reference compound]"
  MIC: "1 µM"
- compound: "NNC(=O)c1ccncc1 [INH, isonicotinic acid hydrazide, reference compound]"
  MIC: "> 250 µM"
- compound: "CC[C@@H](CO)NCCN[C@@H](CC)CO [EMB, ethambutol, reference compound]"
  MIC: "2 µM"
- compound: "CCOC(=O)Nc1ccc(C(O)CN2CCN(c3ccccc3F)CC2)cc1.Cl (centres unmarked)"
  MIC: "> 250 µM"
- compound: "CCCCOC(=O)Nc1cccc(C(O)CN2CCN(c3ccccc3F)CC2)c1.Cl (centres unmarked)"
  MIC: "62.5 µM"
- compound: "CCOC(=O)Nc1cccc(C(O)CN2CCN(c3ccccc3F)CC2)c1.Cl (centres unmarked)"
  MIC: "250 µM"
- compound: "CCCCOC(=O)Nc1ccc(C(O)CN2CCN(c3ccccc3F)CC2)cc1.Cl (centres unmarked)"
  MIC: "> 125 µM"
- compound: "COC(=O)Nc1cccc(C(O)CN2CCN(c3ccccc3F)CC2)c1.Cl (centres unmarked)"
  MIC: "1000 µM"
- compound: "COC(=O)Nc1ccc(C(O)CN2CCN(c3ccccc3F)CC2)cc1.Cl (centres unmarked)"
  MIC: "500 µM"
